Listed here are variants together with their documented normalized RNA/DNA level without ligand (log10).
B1: library; a variant is named by its letters at N, in order (parent)
chain: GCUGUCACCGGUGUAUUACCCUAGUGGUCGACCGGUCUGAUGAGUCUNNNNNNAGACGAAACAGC

Variants of: B1
assayInfo: normalized RNA/DNA level without ligand (relative to sTRSVctl = 100) (log10 (% of sTRSVctl)); ligand: hypoxanthine (xanthine aptamer); higher = less ribozyme self-cleavage, higher mRNA level
protocolConditions: HEK293T, reporter: mCherry (pCS4076), ligand present: no
Note: the reply should be a number with no unit written.

| variantString | numericReadout |
| --- | --- |
| AAGCAC | 1.69 |

Turning to the following variant.
Need normalized RNA/DNA level without ligand (log10) of `AGCCCA` , thanks.
1.88
